FYI, the data here is from patent US10736974B2.

biological target: PSMA (Homo sapiens (Human)); assay: NAALADase assay: PSMA inhibitory activity, fluorescence-based Amplex Red Glutamic Acid assay, lysates of LNCaP cell extracts; format: biochemical; settings: Table 3; Cheng-Prusoff conversion; read-out: Ki
Sequence (Q04609 whole entry): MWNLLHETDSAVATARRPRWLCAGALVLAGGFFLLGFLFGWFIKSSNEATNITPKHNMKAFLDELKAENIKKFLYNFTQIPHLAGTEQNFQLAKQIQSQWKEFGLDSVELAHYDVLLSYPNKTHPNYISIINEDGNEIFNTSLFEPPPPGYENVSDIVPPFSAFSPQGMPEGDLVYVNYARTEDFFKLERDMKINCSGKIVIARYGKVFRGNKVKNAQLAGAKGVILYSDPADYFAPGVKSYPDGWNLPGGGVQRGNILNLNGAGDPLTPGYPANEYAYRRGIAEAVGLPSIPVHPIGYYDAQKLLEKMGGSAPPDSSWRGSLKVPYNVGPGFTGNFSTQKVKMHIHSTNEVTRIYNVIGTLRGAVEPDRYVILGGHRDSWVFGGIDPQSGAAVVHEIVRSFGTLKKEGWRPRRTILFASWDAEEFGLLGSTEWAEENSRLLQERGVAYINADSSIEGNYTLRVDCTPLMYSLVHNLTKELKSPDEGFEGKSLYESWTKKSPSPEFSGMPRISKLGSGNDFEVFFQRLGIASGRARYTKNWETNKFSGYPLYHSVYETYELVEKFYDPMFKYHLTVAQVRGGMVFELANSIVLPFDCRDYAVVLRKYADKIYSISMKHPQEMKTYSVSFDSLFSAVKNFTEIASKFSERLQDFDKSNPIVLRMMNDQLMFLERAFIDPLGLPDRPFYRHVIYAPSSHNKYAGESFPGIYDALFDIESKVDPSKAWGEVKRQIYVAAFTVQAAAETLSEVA
readout: Ki
Note: state the figure and append the unit.

1. COc1ccc2cc(C(=O)NCCCC[C@H](OC(=O)N[C@@H](CCC(=O)O)C(=O)O)C(=O)O)ccc2c1    20 nM

Lab request: please report Ki under test system PSMA (Homo sapiens (Human)) for O=C(O)CC[C@H](NC(=O)NC[C@H](NC(=O)CCCNC(=O)c1ccc(F)cc1)C(=O)O)C(=O)O 1600 nM

// query: O=C(O)CC[C@H](NC(=O)O[C@@H](CCCCNC(=O)c1ccc(SCCF)cc1)C(=O)O)C(=O)O 8.3 nM

Ok, now CC(=O)Nc1ccc(C(=O)NCCCC[C@H](OC(=O)N[C@@H](CCC(=O)O)C(=O)O)C(=O)O)cc1 130 nM

Would you mind doing O=C(O)CC[C@H](NC(=O)O[C@@H](CCCCNC(=O)c1ccc(Cl)cc1F)C(=O)O)C(=O)O as well? 38 nM

Proceed to CSc1ccc(C(=O)NCCCC[C@H](OC(=O)N[C@@H](CCC(=O)O)C(=O)O)C(=O)O)cc1 4.8 nM

Continue with O=C(O)CC[C@H](NC(=O)O[C@H](CCNC(=O)c1ccc(F)cc1)C(=O)O)C(=O)O 980 nM

Here is the next molecule: O=C(O)CC[C@H](NC(=O)O[C@@H](CCNC(=O)c1ccc(F)cc1)C(=O)O)C(=O)O 900 nM
